# EXPERIMENTAL_TARGET: Nuclear receptor ROR-gamma (Homo sapiens)
# TEST_PROTOCOL: qHTS assay to identify small molecule antagonists of the retinoid-related orphan receptor gamma (ROR-gamma) signaling pathway (AID 1159521; further: nearly all actives have a fitted effect of over 50% in size)
# SETTINGS: Tet-on RORgamma CHO cells, RORE-luciferase, 16 h; series mostly up to 92.4 µM
Inconclusive results are not listed. The source made the active and inactive calls. The call rests on the fitted dose curve; in most records, active means well fitted inhibition curve with a large enough effect in the repeat runs; inconclusive means weak or mixed curves, or effect the other way; inactive means no such curve, though single readings can be large or run the other way.
Answer with one of the outcomes active, inactive

Use the examples below as a reference point.
COMPOUND	ANSWER_LABEL
O=C1c2ccccc2C(=O)c2c(O)ccc(O)c21	inactive
CC12CC3CC(C)(C1)CC(N)(C3)C2	inactive
CC(C)C(O)C(C)(C)CO (configuration not stated)	active
CCC1CCC(CCC(=O)O)C1 (configuration not stated)	inactive
CCN(CC)c1cccc(O)c1	inactive

Per the assay record, what outcome was assigned to `Cc1c(C2(c3cc(Br)c(O)c(Br)c3C)OS(=O)(=O)c3ccccc32)cc(Br)c(O)c1Br` ? active

Note, next up: `O=C(O)c1cccc(Oc2ccccc2)c1` inactive

Note, next up: COC1CCC=CO1 (configuration not stated) inactive

Note, next up: COc1ccc2nc(S(=O)Cc3ncc(C)c(OC)c3C)[nH]c2c1 (configuration not stated) inactive

Note, next up: `O=C(O)CN1C(=O)c2cccc3cccc(c23)C1=O` inactive

Note, next up: CCCCCCCCCCCC(=O)OCC(O)CO (configuration not stated) inactive

Note, next up: `CCCCOCCOC(=O)c1cccnc1` inactive

Note, next up: `CNc1c2c(nn1C)CCCC2` inactive

Note, next up: `Cc1cc(CCCOc2c(C)cc(-c3noc(C(F)(F)F)n3)cc2C)on1` inactive

Note, next up: `CCCCCCCC/C=C/C(=O)O` inactive

Note, next up: `Nc1ccc(NC(=O)c2ccc(N)cc2)cc1` inactive

Note, next up: `O=C1OC[C@H](Cc2cccc(O)c2)[C@H]1Cc1cccc(O)c1` inactive

Note, next up: `FC(F)(F)C(F)(F)C(F)(F)C(F)(F)CCI` inactive

Note, next up: `O=C(O)CCC(=O)OC[C@@H](NC(=O)C(Cl)Cl)[C@H](O)c1ccc([N+](=O)[O-])cc1` inactive

Note, next up: `Nc1ccn([C@H]2CS[C@@H](CO)O2)c(=O)n1` inactive
